- Test system: ST486
- runDescription: SANGER: Inhibition of human ST486 cell growth in a cell viability assay.
- Assay type: functional, cell-based
pIC50: −log10 of the molar value.
Binary classification by pIC50, with 6 as an inclusive lower bound for Fulfilled; all other cases are Not fulfilled.

1) COc1cc([C@@H]2c3cc4c(cc3[C@@H](O[C@@H]3O[C@@H]5CO[C@@H](C)O[C@H]5[C@H](O)[C@H]3O)[C@H]3COC(=O)[C@H]23)OCO4)cc(OC)c1O [ETOPOSIDE] : Not fulfilled
2) CNC(=O)c1cc(Oc2ccc(NC(=O)Nc3ccc(Cl)c(C(F)(F)F)c3)cc2)ccn1 : Not fulfilled
3) Cc1cnc(-c2cnc(NCCNc3ccc(C#N)cn3)nc2-c2ccc(Cl)cc2Cl)[nH]1 : Not fulfilled
4) CCC(=O)N1CCN(c2ccc(-n3c(=O)ccc4cnc5ccc(-c6cnc7ccccc7c6)cc5c43)cc2C(F)(F)F)CC1 : Fulfilled
5) CCC1=C[C@@H]2CN(C1)Cc1c([nH]c3ccccc13)[C@@](C(=O)OC)(c1cc3c(cc1OC)N(C)[C@H]1[C@@](O)(C(=O)OC)[C@H](OC(C)=O)[C@]4(CC)C=CCN5CC[C@]31[C@@H]54)C2 : Fulfilled
6) O=C(/C=C/c1ccccc1)NC(NC(=S)Nc1cccc2cccnc12)C(Cl)(Cl)Cl (configuration not stated) : Not fulfilled

----------
- Tested on: NCI-H522;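 further: cell viability assay measuring growth inhibition of human NCI-H522 cells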
- runDescription: cells
- Type: functional, cell-based, Homo sapiens
- assayConditions: nci-h522
- Description: SANGER: Inhibition of human NCI-H522 cell growth in a cell viability assay.
pIC50: −log10 of the molar value.
propertyName: pIC50

1) Cc1cc([C@@H](C)Nc2ccccc2C(=O)O)c2nc(N3CCOCC3)cc(=O)n2c1 [AZD-6482] : < 5.29

----------
# pIC50 values compiled below
- Test system: CCRF-CEM;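 further: inhibition of CCRF-CEM cell growth, measured by a cell viability assay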
- runDescription: cells
- Assay type: functional, cell-based
- assayConditions: Homo sapiens
- Description: SANGER: Inhibition of human CCRF-CEM cell growth in a cell viability assay.
pIC50: −log10 of the molar value.
propertyName: pIC50

1) CC(=O)O[C@@H]1[C@@H](OC(C)=O)[C@@H](O)[C@H](Oc2c(-c3ccc(O)cc3)oc3cc(O)cc(O)c3c2=O)O[C@H]1C : < 5.00
2) CN(c1ncccc1CNc1nc(Nc2ccc3c(c2)CC(=O)N3)ncc1C(F)(F)F)S(C)(=O)=O : < 5.59
3) Cn1cc(C2=C(c3ccc(Cl)cc3Cl)C(=O)NC2=O)c2ccccc21 : < 5.00
4) CCOc1nc(NC(=O)Cc2cc(OC)ccc2OC)cc(N)c1C#N : < 5.00

----------
- System: HCC1569;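 further: growth inhibition of human HCC1569 cells, read out with a cell viability assay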
- runDescription: cells
- Assay type: functional, cell-based, Homo sapiens
- assayConditions: Homo sapiens, HCC1569
- Description: SANGER: Inhibition of human HCC1569 cell growth in a cell viability assay.
# IC50 values compiled below
propertyName: IC50

1) C=CCc1cccc(/C=N/NC(=O)CN2CCN(Cc3ccccc3)CC2)c1O : > 2.56 µM
2) CCC1=C[C@@H]2CN(C1)Cc1c([nH]c3ccccc13)[C@@](C(=O)OC)(c1cc3c(cc1OC)N(C)[C@H]1[C@@](O)(C(=O)OC)[C@H](OC(C)=O)[C@]4(CC)C=CCN5CC[C@]31[C@@H]54)C2 : 0.00493 µM
3) CN(c1ncccc1CNc1nc(Nc2ccc3c(c2)CC(=O)N3)ncc1C(F)(F)F)S(C)(=O)=O : > 2.56 µM
4) COc1cc(F)c(F)c(Nc2ccc(I)cc2F)c1NS(=O)(=O)C1(CC(O)CO)CC1 (stereo not drawn) : > 5 µM
5) CN(C)C/C=C/C(=O)Nc1cc2c(Nc3ccc(F)c(Cl)c3)ncnc2cc1O[C@H]1CCOC1 : > 0.5 µM
6) CC(=O)O[C@@]12CO[C@@H]1C[C@H](O)[C@@]1(C)C(=O)[C@H](O)C3=C(C)[C@@H](OC(=O)[C@H](O)[C@@H](NC(=O)OC(C)(C)C)c4ccccc4)C[C@@](O)([C@@H](OC(=O)c4ccccc4)[C@H]21)C3(C)C : > 0.01 µM
7) Cn1cc(C2=C(c3ccc(Cl)cc3Cl)C(=O)NC2=O)c2ccccc21 : > 10 µM
8) O=C(NOCC1CC1)c1ccc(F)c(F)c1Nc1ccc(I)cc1Cl : > 10 µM

Value source: ChEMBL document CHEMBL1201861
